The measurements presented in this section are drawn from patent US20170260272A1.

Target: APP-Avi-soluble human LOX-1(61-273) (human, UniProt P78380 61-273)
Experiment: SET, IgG vs soluble human LOX-1
Protocol: Affinity determination for anti-LOX-1 IgGs using Solution Equilibrium Titration (SET) was basically performed as described in the literature (Friguet et al., 1985 J Immunol Methods 77: 305-319). […] On a pre-blocked MSD plate (Meso Scale Discovery, catalog no. L21SA) biotinylated human or cynomolgus monkey soluble LOX-1 protein was immobilized and washed afterwards. […] The KD values were determined by fitting the data to the following equation: […]
pKd: −log10 of the molar value.
Label criterion met when pKd is at or above 10; anything below gets criterion not met.

Solved entries (count: 6):
MOR021467 (antibody, V domains shown, IgG (human IgG1f LALA); parent MOR20144 with the printed HCDR2 stretch exchanged) VH: QVQLLESGGGLVQPGGSLRLSCAASGFTFSDYALHWVRQAPGKGLEWVSVISYQGGFTFYADSVKGRFTISRDNSKNTLYLQMNSLRAEDTAVYYCARSPGLTSYHDSWGQGTLVTVSS VL: DIVLTQPPSVSGAPGQRVTISCSGSSSNIGSNYVSWYQQLPGTAPKLLIHSNSHRPSGVPDRFSGSKSGTSASLAITGLQAEDEADYYCQSWDYESERVVFGGGTKLTVLG: criterion met
MOR021460 (antibody, human IgG1, lambda, L234A L235A, V domains shown, also called MOR21460) VH: QVQLLESGGGLVQPGGSLRLSCAASGFTFSDYALHWVRQAPGKGLEWVSVISYQGGFIYYADSVKGRFTISRDNSKNTLYLQMNSLRAEDTAVYYCARSPGLTSYHDSWGQGTLVTVSS VL: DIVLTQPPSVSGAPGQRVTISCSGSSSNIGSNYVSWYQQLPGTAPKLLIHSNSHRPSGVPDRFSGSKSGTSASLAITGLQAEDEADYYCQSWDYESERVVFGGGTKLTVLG: criterion met
MOR021440 (antibody, V domains shown, IgG (human IgG1f LALA); parent MOR20159 with the printed LCDR3 stretch exchanged) VH: QVQLVQSGAEVKKPGSSVKVSCKASGGTFSDYAISWVRQAPGQGLEWMGGIVPIVGTANYAQKFQGRVTITADESTSTAYMELSSLRSEDTAVYYCARDSSTSYYYYFDYWGQGTLVTVSS VL: DIQMTQSPSSLSASVGDRVTITCRASQDINSWLAWYQQKPGKAPKLLIYQASNLQSGVPSRFSGSGSGTDFTLTISSLQPEDFATYYCQQMQESLLTFGQGTKVEIKR: criterion met
MOR22028 (antibody, human IgG1, lambda, L234A L235A, V domains shown, Human IgG1f LALA; also called MOR022028; MOR20228) VH: QVQLLESGGGLVQPGGSLRLSCAASGFTFSDYALHWVRQAPGKGLEWVSVISYAGGFKFYADSVKGRFTISRDNSKNTLYLQMNSLRAEDTAVYYCARSPGLTSYHDSWGQGTLVTVSS VL: QSVLTQPPSVSGAPGQRVTISCSGSSSNIGSNYVSWYQQLPGTAPKLLIHSSSHRPSGVPDRFSGSKSGTSASLAITGLQAEDEADYYCQSWDYESERVVFGGGTKLTVLG: criterion met
MOR020151 (antibody, human IgG1, lambda, L234A L235A, V domains shown, also called MOR20151) VH: QVQLVESGGGLVKPGGSLRLSCAASGFTFSSYALSWVRQAPGKGLEWVGRIKSKTMGGTSDYAAPVKGRFTISRDDSKNTLYLQMNSLKTEDTAVYYCARDFWADHYYYFDYWGQGTLVTVSS VL: DIALTQPASVSGSPGQSITISCTGTSSDVGYINYVNWYQQHPGKAPKLMIYEVSNRPSGVSNRFSGSKSGNTASLTISGLQAEDEADYYCASWDWYDNVVFGGGTKLTVLG: criterion not met
MOR021462 (antibody, V domains shown, IgG (human IgG1f LALA); parent MOR20144 with the printed HCDR2 stretch exchanged) VH: QVQLLESGGGLVQPGGSLRLSCAASGFTFSDYALHWVRQAPGKGLEWVSGISYQGGFIFYADSVKGRFTISRDNSKNTLYLQMNSLRAEDTAVYYCARSPGLTSYHDSWGQGTLVTVSS VL: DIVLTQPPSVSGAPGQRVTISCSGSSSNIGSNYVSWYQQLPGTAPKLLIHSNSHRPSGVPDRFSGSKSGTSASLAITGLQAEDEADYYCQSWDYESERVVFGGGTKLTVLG: criterion met

[ask] Hi team, for MOR020148 (antibody, human IgG1, lambda, L234A L235A, V domains shown, also called MOR20148) VH: QVQLLESGGGLVQSGGSLRLSCAASGFTFRSGAAMHWVRQAPGKGLEWVSGISSFSSSTDYADSVKGRFTISRDNSKNTLYLQMNSLRAEDTAVYYCARNFKYAMDYWGQGTLVTVSS VL: DIALTQPASVSGSPGQSITISCTGTSSDVGSINYVSWYQQHPGKAPKMIYAVSYRPSGVSNRFSGSKSGNTASLTISGLQAEDEADYYCQVWDWRSDSRVFGGGTKLTVLG , is the recorded pKd at or above 10?
[reply] criterion not met

[ask] Kindly determine if pKd recorded for MOR021454 (antibody, V domains shown, IgG (human IgG1f LALA); parent MOR20151 with the printed HCDR2 stretch exchanged) VH: QVQLVESGGGLVKPGGSLRLSCAASGFTFSSYALSWVRQAPGKGLEWVGRIRHYKWGGTTEYAAPVKGRFTISRDDSKNTLYLQMNSLKTEDTAVYYCARDFWADHYYYFDYWGQGTLVTVSS VL: DIALTQPASVSGSPGQSITISCTGTSSDVGYINYVNWYQQHPGKAPKLMIYEVSNRPSGVSNRFSGSKSGNTASLTISGLQAEDEADYYCASWDWYDNVVFGGGTKLTVLG is above or exactly 10.
[reply] criterion met
